target: UniProt P21554; experiment: cAMP Assay: CHO cells expressing human CB1 or CB2 receptors are seeded 17-24 hours prior to the experiment 50.000 cells per well in a black 96 well plate with flat clear bottom (Corning Costar #3904) in DMEM (Invitrogen No. 31331), 1×HT supplement, with 10% fetal calf serum and incubated at 5% CO2 and 37° C. in a humidified incubator. The growth medium was exchanged with Krebs Ringer Bicarbonate buffer with 1 mM IBMX and incubated at 30° C. for 30 min Compounds were added to a final assay volume of 100 ul and incubated for 30 min at 30° C. Using the cAMP-Nano-TRF detection kit the assay (Roche Diagnostics) was stopped by the addition of 50 ul lysis reagent (Tris, NaCl, 1.5% Triton X100, 2.5% NP40, 10% NaN3) and 50 ul detection solutions (20 uM mAb Alexa700-cAMP 1:1, and 48 uM Ruthenium-2-AHA-cAMP) and shaken for 2 h at room temperature. The time-resolved energy transfer is measured by a TRF reader (Evotec Technologies GmbH), equipped with a ND:YAG laser as excitation source. The plate is measured twice with the excitation at 355 nm and at the emission with a delay of 100 ns and a gate of 100 ns, total exposure time 10 s at 730 (bandwidth 30 nm) or 645 nm (bandwidth 75 nm), respectively. The FRET signal is calculated.
Sequence (P21554 whole entry): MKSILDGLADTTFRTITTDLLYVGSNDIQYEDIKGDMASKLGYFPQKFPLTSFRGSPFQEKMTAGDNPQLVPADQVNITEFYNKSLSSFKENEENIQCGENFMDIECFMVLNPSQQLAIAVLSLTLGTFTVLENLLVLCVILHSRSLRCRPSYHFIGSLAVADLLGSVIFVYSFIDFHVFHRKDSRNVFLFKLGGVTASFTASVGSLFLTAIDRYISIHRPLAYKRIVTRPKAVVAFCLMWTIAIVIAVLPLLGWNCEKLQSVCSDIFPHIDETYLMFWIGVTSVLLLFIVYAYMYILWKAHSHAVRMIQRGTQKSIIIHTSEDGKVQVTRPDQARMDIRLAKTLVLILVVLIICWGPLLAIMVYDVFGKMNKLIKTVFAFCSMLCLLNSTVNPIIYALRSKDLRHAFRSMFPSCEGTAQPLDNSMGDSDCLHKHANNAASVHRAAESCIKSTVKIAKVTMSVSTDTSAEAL
pEC50: −log10 of the molar value.
measured_quantity: pEC50

Reported pEC50, compound O=C(N[C@@H](CC1CC1)C(=O)NC1CCC(O)C1)c1ccc(C2CC2)c(OCC2CC2)n1 (stereo partly specified) : ____
< 5.00
